Test system: TO-3-N3 (biotin conjugate)
Experiment: pull-down binding Z-score (relative to library population); higher = stronger binding
Conditions: RNA library: Library-2
Mark FALSE for pull-down binding Z-score values under -0.4, and TRUE for everything at or above.

Solved entries:
{"sequenceRecord": "ACAUACUAGGACCUCUUUCUGCUCAAACUGGAAUUGCCGUUUUAGAUAUGU [DMSMaPseq_invitro_SARS-CoV-2_Motif_193]", "studySystem": "TO-3-N3 (biotin conjugate)", "labelValue": "FALSE"}
{"sequenceRecord": "AAUGCAUAGAAAGCAUU [hsa-mir-4272]", "studySystem": "TO-3-N3 (biotin conjugate)", "labelValue": "TRUE"}
{"sequenceRecord": "CUGCCAUUGAAAGUAAAGGCAA [hsa-mir-548ag-2]", "studySystem": "TO-3-N3 (biotin conjugate)", "labelValue": "TRUE"}
{"sequenceRecord": "GGAGACACUUUUACUAUAUAUAGUGGCUCC [hsa-mir-3156-1]", "studySystem": "TO-3-N3 (biotin conjugate)", "labelValue": "FALSE"}
{"sequenceRecord": "GCAUAAAAACAACUUUUGGGGGACAGGUAUGUUUUCUUGC [hsa-mir-5047]", "studySystem": "TO-3-N3 (biotin conjugate)", "labelValue": "TRUE"}

Threshold query (pull-down binding Z-score >= -0.4) on AUCCAGUCCACUUAAUUCUGAGAAAGUCCACAGACUGGAUCGGGUCUUGGAUUUUAGCUGGAUUCAU [hsa-mir-6082] FALSE

Also, `UGCAGAUUUGGAUGAUUUCUCCAAACAAUUGCA` please. TRUE

Proceed to CCGAAUACCAUAAUGAAUCUGGCUUGAAAACCAUUCUUCGUAAGGGUGGUCGCACUAUUGCCUUUGG [DMSMaPseq_invitro_SARS-CoV-2_Multi_5_ComplexLevel_1] FALSE

Try GGAGAGUGUGGACACUUAUGAAUGUCUUGACACUCGUU [SHAPE_invitro_SARS-CoV-2_Motif_211] next. TRUE

What do we get for UUCUUUUUUCUGAAAUUCUUCAGGAAGGA [hsa-mir-3167] ? TRUE

Another: `UCCACUAGCAUCUUUAUUGGAGAUGUGCCACAGCACACAGAUUGGUGGAAUUAGGAUGGUAGACAUCCUUAGGCAGAACCCAACAGAAGAGCAAGCCGUGGA` FALSE

Try the sequence ACCAUAGUCAUAAGUUAGGAGAUGUUAGAGCUGUGAGU [hsa-mir-4286] FALSE

`UACAAUUUGCCUAUGCCAACAGGAAUAGGUUUUUGUA` , same question. TRUE

---

Recorded pull-down binding Z-score, one value per entry.
Test system: TO-N3-2 (biotin conjugate)
Assay: pull-down binding Z-score (relative to library population); higher = stronger binding
Conditions: RNA library: Library-2
I'd appreciate a reply containing only the number, no unit.

{"sequenceRecord": "GAUGGAUUCUUAUGCUCCAUC [hsa-mir-136]", "studySystem": "TO-N3-2 (biotin conjugate)", "pull-down binding Z-score": -0.9}
{"sequenceRecord": "GCAUGGGGCUAGGAGGCCCCGCGC [hsa-mir-6825]", "studySystem": "TO-N3-2 (biotin conjugate)", "pull-down binding Z-score": 0.142}
{"sequenceRecord": "UAAGAGUAAUAGCUCUCUAGGUUAUUAUGAAUA [hsa-mir-5692c-1]", "studySystem": "TO-N3-2 (biotin conjugate)", "pull-down binding Z-score": -0.712}
{"sequenceRecord": "UCUGACAGUCCAUGUGAGUCUCAUGGAAAACAAGUAGUGUCAGA [SHAPE_invivo_SARS-CoV-2_Motif_364]", "studySystem": "TO-N3-2 (biotin conjugate)", "pull-down binding Z-score": -0.73}
{"sequenceRecord": "GCAGAGAAGACAGUGAGCUUGCCAGUUCUGGUUUCCAACACUUCCUUUCCUGCG [hsa-mir-3911]", "studySystem": "TO-N3-2 (biotin conjugate)", "pull-down binding Z-score": 1.3}
{"sequenceRecord": "AGGUGCUAGGUCGGCCUCGGC [hsa-mir-5787]", "studySystem": "TO-N3-2 (biotin conjugate)", "pull-down binding Z-score": 1.47}
{"sequenceRecord": "GCUUCUGCGUUAUCUGGAAGG [hsa-mir-4706]", "studySystem": "TO-N3-2 (biotin conjugate)", "pull-down binding Z-score": 0.26}
{"sequenceRecord": "GCGCUGCCAGAAACUGGCCCCAGCGC [bulge-CCC]", "studySystem": "TO-N3-2 (biotin conjugate)", "pull-down binding Z-score": 0.6}

Please report the recorded pull-down binding Z-score for GUUAGUACAACUACUAAC [SHAPE_invivo_SARS-CoV-2_Motif_138] . -0.963

Same thing, different sequence: `GCAGACGGGCGAUUUUGUUAAAGCCACUUGC` 1.57

What about this sequence? AAGCUGACAGACAGCUG [hsa-mir-5691] 0.218

Another sequence to look at: AGUGGCCAAUUCCU [hsa-mir-4251] -0.274

Then CACACAUACAUAUAUAUAUGUUUG [hsa-mir-3149] ? -0.501

Okay, and `AUGAGGUUUAGAAGAGCUUUUGGUGAAUACAGUCAUGUAGUUGCCUUUAAUACUUUACUAUUCCUUAU` ? -0.689

Next up: CUCAGAGGGCUGAAGUGGUUGUGGGGAGGGGCUUCUGGG [hsa-mir-4296] 4.01

And UAUAUUCGGUUUAUUGACAUGGAAUAUA [hsa-mir-381] ? -0.284

Thanks! And UUAGCCCAGCAAUGGGAGAGUGCUAA [hsa-mir-4636] ? 0.154

Cool, now GCACUAUUGCCUUUGGAGGCUGUGUGU [SHAPE_invivo_SARS-CoV-2_Motif_29] -0.0377

// next record UGGGGAGUUGAACCUA [IAV_invivo_PB2_1_Motif_19+IAV_invivo_PB2_1_Motif_19] -0.437

Subsequent entry: `UGCAACGAUACCGAUACAAGCCUCACUCCCUUUCGGAUGGCUUAUUGUUGGCGUUGCA` -0.000368

// same read-out, input: UAAGGAAGGAAGUUCUGUUGAAUUAAAACACUUCUUCUUUG [SHAPE_invitro_SARS-CoV-2_Motif_269] -0.905

Repeat with GGGCUGCCCGGGCCGGUCGACCAGCGCGCCGUAGCUCC [hsa-mir-6724-2_6724-3_6724-1_6724-4] 2.24

Now consider AAGUAAUUGUUUCUAAUGUACU [hsa-mir-412] . 0.583

Next up: CAAGUUAUCACUGAGCGACUUC [hsa-mir-4664] -0.296

Record: GUCCAUUAGGCUUUGUUAUGGAAACUUCUCCUGAUC [hsa-mir-635] 0.875
